This listing pairs molecules with measured pIC50.
biological target: UniProt O14757
Sequence (O14757 whole entry): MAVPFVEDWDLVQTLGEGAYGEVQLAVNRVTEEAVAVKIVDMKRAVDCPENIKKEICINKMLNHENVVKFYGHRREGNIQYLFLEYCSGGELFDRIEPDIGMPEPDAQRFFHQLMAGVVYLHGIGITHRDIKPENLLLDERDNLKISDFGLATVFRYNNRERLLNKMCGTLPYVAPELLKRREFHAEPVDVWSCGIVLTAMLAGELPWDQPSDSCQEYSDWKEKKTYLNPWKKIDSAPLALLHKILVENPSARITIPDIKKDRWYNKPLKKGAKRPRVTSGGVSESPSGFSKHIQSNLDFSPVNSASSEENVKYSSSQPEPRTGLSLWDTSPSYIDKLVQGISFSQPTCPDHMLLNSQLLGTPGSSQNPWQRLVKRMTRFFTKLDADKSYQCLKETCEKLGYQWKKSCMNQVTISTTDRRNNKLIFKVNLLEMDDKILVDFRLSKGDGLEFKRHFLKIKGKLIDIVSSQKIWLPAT
pIC50: −log10 of the molar value.

{"columns": ["MOLECULE", "pIC50"],
 "data": [
  ["COc1nccc(OCC2(C)CNC2)c1-c1cc(Nc2cnc(C#N)cn2)n[nH]1 [Example 6]", 9.57],
  ["COc1ccnc(OCC2(CN)CC2)c1-c1cc(Nc2cnc(C#N)cn2)n[nH]1 [Example 37]", 9.49],
  ["COc1cncc(OC[C@]2(F)CCNC2)c1-c1cc(Nc2cnc(C#N)cn2)n[nH]1 [Example 20]", 9.47],
  ["COc1cncc(OC[C@H](F)CN)c1-c1cc(Nc2cnc(C#N)cn2)n[nH]1 [Example 30]", 9.59],
  ["COc1cncc(O[C@@H]2CCC[C@H](N)C2)c1-c1cc(Nc2cnc(C#N)cn2)n[nH]1 [Example 19]", 9.59],
  ["COc1cncc(OC[C@H](C)CN)c1-c1cc(Nc2cnc(C#N)cn2)n[nH]1 [Example 28]", 9.30],
  ["COc1ncnc(OCC2(CN)CC2)c1-c1cc(Nc2cnc(C#N)cn2)n[nH]1 [Example 23]", 9.10],
  ["COc1ccnc(OCCCN)c1-c1cc(Nc2cnc(C(F)(F)F)cn2)n[nH]1 [Example 16]", 8.52],
  ["COc1cncc(OCCCN)c1-c1cc(Nc2cnc(C#N)cn2)n[nH]1 [Example 3]", 9.66],
  ["COc1cncc(O[C@H](C)C2(O)CNC2)c1-c1cc(Nc2cnc(C#N)cn2)n[nH]1 [Example 34]", 8.74],
  ["COc1cncc(OCC2(C(F)F)CNC2)c1-c1cc(Nc2cnc(C#N)cn2)n[nH]1 [Example 26]", 9.85],
  ["COc1cncc(OCC[C@H](C)N)c1-c1cc(Nc2cnc(C#N)cn2)n[nH]1 [Example 10]", 9.52],
  ["COc1cncc(OCC2(CN)CC2)c1-c1cc(Nc2cnc(C#N)cn2)n[nH]1 [Example 11]", 9.74]
]}

* * *

This listing pairs molecules with measured hERG/CHK1.
target: hERG current (Homo sapiens (Human)); assay: hERG current blocking test; details: IC50 of hERG divided by IC50 of CHK1 inhibition
Sequence (Q12809 whole entry): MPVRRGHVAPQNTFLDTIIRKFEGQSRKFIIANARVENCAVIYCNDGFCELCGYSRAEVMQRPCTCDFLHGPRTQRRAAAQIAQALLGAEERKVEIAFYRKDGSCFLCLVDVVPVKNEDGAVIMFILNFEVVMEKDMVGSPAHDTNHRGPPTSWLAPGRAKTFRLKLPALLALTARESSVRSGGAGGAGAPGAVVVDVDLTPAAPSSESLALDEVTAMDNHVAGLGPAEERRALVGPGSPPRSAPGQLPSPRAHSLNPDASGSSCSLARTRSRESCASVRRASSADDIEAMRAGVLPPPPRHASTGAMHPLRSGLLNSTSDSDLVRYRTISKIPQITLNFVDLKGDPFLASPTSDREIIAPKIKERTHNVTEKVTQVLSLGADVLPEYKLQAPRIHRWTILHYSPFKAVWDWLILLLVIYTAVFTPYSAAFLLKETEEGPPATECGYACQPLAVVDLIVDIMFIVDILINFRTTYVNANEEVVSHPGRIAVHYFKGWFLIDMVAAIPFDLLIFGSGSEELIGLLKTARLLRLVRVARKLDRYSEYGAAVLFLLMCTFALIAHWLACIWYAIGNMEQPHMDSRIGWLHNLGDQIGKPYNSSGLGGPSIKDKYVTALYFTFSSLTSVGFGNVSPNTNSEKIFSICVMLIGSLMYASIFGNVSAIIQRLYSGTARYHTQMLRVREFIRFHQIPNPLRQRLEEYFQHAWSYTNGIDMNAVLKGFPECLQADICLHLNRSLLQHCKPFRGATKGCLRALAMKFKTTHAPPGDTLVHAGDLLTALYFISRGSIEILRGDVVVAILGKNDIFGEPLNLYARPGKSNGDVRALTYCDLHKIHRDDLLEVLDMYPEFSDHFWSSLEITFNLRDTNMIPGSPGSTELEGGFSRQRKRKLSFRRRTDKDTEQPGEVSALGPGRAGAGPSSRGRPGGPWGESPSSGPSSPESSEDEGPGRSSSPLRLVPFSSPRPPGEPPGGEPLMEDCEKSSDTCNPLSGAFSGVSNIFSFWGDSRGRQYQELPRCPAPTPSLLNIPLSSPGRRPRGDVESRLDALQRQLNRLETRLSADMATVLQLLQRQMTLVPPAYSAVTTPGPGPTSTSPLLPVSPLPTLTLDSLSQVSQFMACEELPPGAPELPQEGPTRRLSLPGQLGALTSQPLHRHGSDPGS
MEASURED_ENDPOINT: hERG/CHK1

{"columns": ["MOLECULE", "MEAS_VALUE"],
 "data": [
  ["COc1cncc(OC[C@@H](F)CN)c1-c1cc(Nc2cnc(C#N)cn2)n[nH]1", 18667],
  ["COc1cncc(OC[C@]2(F)CCNC2)c1-c1cc(Nc2cnc(C#N)cn2)n[nH]1", 11176],
  ["COc1cncc(OC[C@@]2(F)CCNC2)c1-c1cc(Nc2cnc(C#N)cn2)n[nH]1", 12500],
  ["COc1cncc(OC[C@H]2CNCCO2)c1-c1cc(Nc2cnc(C#N)cn2)n[nH]1 (stereo in doubt)", "<3649"],
  ["COc1cncc(OC[C@@H]2CNCCO2)c1-c1cc(Nc2cnc(C#N)cn2)n[nH]1 (stereo in doubt)", 9118],
  ["COc1cncc(OC[C@H](F)CN)c1-c1cc(Nc2cnc(C#N)cn2)n[nH]1", 40000],
  ["COc1ccnc(OCCCN)c1-c1cc(Nc2cnc(C(F)(F)F)cn2)n[nH]1", "<888"],
  ["COc1ccnc(OCC2(CN)CC2)c1-c1cc(Nc2cnc(C#N)cn2)n[nH]1", "<8438"],
  ["COc1ccnc(OCCCN)c1-c1cc(Nc2cnc(C#N)cn2)n[nH]1", ">115000"],
  ["COc1nccc(OCC2(CO)CNC2)c1-c1cc(Nc2cnc(C#N)cn2)n[nH]1", ">1000000"]
]}
